Each entry below lists one item and its recorded growth value.
- Test system: ACHN renal
- ASSAY_INFO: NCI-60 one-dose screen, 48 h (100 = growth as untreated, 0 = no growth, -100 = all killed)
- CONDITION_SET: 10 µM unless noted
The panel holds about 83,000 compounds, 20% with a hit somewhere; the sample as a whole holds those more often.
MEASURED_PROPERTY: growth (%)

> print(dat)
                            chemical.smiles  target.under.test  observed.value
1  Cc1cc(Cl)ccc1Nc1nc(C(F)(F)F)ccc1C(=O)N/N=C/c1ccc([N+](=O)[O-])cc1         ACHN renal           -22.9
2  COc1ccc2c3c([nH]c2c1)C(=O)c1nc(C)ccc1C3=O         ACHN renal              35
3     N#Cc1c(-c2cccs2)cc(-c2cccnc2)[nH]c1=O         ACHN renal            97.2
4            CCCCNc1ccc(C#N)c(OCCN(CC)CC)c1         ACHN renal             101
5             O=C(/C=C/c1cccs1)c1ccc(Cl)nc1         ACHN renal             106
6  COc1cc(-c2cc(-c3ccc(N(C)C)cc3)nc(N3CCC(O)CC3)c2C#N)cc(OC)c1OC         ACHN renal            15.1
7  O=C(CCc1nnc(Cn2cnc3nc[nH]c3c2=O)o1)c1nc2ncccc2[nH]1         ACHN renal             105
8  CCOc1nc(-c2ccccc2)cc2c(O)c(C(=O)NN)[nH]c(=O)c12         ACHN renal             107
